Molecular target: human TLR9 (Homo sapiens, UniProt Q9NR96)
Construct: host or cells: HEK-Blue cells
Sequence (Q9NR96 26-1032): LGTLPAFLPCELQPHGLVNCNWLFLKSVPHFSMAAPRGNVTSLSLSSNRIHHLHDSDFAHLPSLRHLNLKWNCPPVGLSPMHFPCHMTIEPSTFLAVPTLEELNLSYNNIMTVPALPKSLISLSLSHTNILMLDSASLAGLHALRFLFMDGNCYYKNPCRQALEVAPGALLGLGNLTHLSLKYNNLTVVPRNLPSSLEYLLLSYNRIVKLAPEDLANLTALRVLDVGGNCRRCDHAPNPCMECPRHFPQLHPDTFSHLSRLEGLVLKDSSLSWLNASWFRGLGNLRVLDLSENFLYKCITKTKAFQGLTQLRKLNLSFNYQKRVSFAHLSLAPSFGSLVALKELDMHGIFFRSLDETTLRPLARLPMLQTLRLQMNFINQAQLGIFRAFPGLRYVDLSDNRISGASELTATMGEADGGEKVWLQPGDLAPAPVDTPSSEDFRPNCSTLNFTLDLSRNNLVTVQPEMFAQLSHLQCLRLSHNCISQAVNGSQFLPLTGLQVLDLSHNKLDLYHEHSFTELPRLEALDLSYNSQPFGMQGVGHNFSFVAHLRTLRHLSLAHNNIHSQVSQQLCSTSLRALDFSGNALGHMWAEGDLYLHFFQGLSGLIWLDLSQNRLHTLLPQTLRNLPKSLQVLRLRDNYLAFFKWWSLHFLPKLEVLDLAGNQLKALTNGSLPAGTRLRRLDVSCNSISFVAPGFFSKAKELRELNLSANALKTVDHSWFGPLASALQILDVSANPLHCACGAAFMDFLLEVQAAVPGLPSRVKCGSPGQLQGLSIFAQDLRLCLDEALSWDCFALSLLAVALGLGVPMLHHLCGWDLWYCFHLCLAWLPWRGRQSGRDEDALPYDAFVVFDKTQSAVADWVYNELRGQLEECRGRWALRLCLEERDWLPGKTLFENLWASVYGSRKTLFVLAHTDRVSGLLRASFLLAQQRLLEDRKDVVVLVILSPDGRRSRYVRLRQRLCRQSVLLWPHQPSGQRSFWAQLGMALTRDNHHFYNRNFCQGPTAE
Experiment: TLR9 inhibition reporter assay (HEK-Blue cells, SEAP reporter, ODN2006 stimulation)
Assay type: cell-based
Details: HEK-Blue cells overexpressing human TLR9, SEAP reporter, ODN2006 5 nM
pIC50: −log10 of the molar value.
observed property: pIC50

Would you please look over these solved cases?
{"molecule": "Cc1cc2ncnn2cc1-c1[nH]c2sc(C3CCC(NC4(C)COC4)CC3)nc2c1C(C)C (single isomer, unassigned) [Example 144]", "pIC50": 4.82}
{"molecule": "Cc1cc(-c2[nH]c3sc(C4CCN(C5COC5)CC4)nc3c2C(C)C)cn2ncnc12", "pIC50": 4.79}
{"molecule": "Cc1c(-c2[nH]c3sc(C4CCC(NC(C)C)CC4)nc3c2C(C)C)cn2ncnc2c1C (single isomer, unassigned) [Example 195]", "pIC50": 5.26}

1 = Cc1c(-c2[nH]c3sc(N4CCN(CC(C)(C)O)CC4)nc3c2C(C)C)cn2ncnc2c1C
2 = Cc1c(-c2[nH]c3sc(N4CCC(NC5CCC5)CC4)nc3c2C(C)C)cn2ncnc2c1C
Smaller pIC50 value? Options are 1 and 2 Lab note: record the label of whichever item you select.
1
(1: 4.37, 2: 5.18)

Values were extracted from patent US20230139171A1.
